tested on: CEM cells HIV-1 protection, formazan growth assay; experiment: NCI AIDS Antiviral Assay
Quick reference: EC50 of the listed items.

Consider the following illustrative entries.
CCOC(=O)/C(C#N)=C/c1c[nH]c2ccccc12 = > 200 µM
C=CCN(CCNS(=O)(=O)c1ccc(C)cc1)S(=O)(=O)c1ccc(C)cc1 = > 33.1 µM

Query string: State its EC50 on CEM cells HIV-1 protection, formazan growth assay: O=C1c2n[nH]nc2C(=O)c2n[nH]nc21
Result string: > 200 µM

Query string: N/C(=N\N=C\c1ccccn1)NO ?
Result string: > 200 µM

Query string: COc1ccc(/C=N/NC(=O)c2sc(=S)n(-c3ccccc3)c2N)cc1 ?
Result string: > 9.77 µM

Query string: CCOC(=O)Nc1cc2c(c(N)n1)N=C(c1ccc(OC)cc1)CN2 ?
Result string: > 11 µM

The origin of these recorded values is PubChem BioAssay AID179.
